Where these numbers come from: the METLIN SMRT retention time set (Domingo-Almenara et al. 2019)

assay.text: gradient 5% acetonitrile 3 min, to 50% in 2 min, to 85% in 15 min, held 3 min, 100 µL/min
test.settings: column: Zorbax Extend-C18 2.1 x 50 mm; eluents: water / acetonitrile, 0.1% formic acid
reported.endpoint: RP-LC retention time (s)

Use these answered entries as a reference point.
CCNC(=O)c1nc(Nc2ccc(C)cc2)c2ccccc2n1    705
O=C1/C(=C/c2cc(Br)cc3c2OCOC3)Oc2cc(OC(=O)C3CC3)ccc21    1200
COCc1noc(C2CCCCN2CC(=O)Nc2nccs2)n1 (stereo not given)    720

1. Cc1nc(-c2csc(S(=O)(=O)N3CCCC(C(=O)NCCc4ccccc4)C3)c2)no1 (stereo not given)
2. Cc1cn(C)c(CC(=O)NCCCN2CCCC(C)C2)c1C(=O)O (stereo not given)
Quick check, higher RP-LC retention time between 1 and 2 ? # respond with the chosen item's label 1
(1: 901 s, 2: 586 s)

###

assay.text: gradient 5% acetonitrile 3 min, to 50% in 2 min, to 85% in 15 min, held 3 min, 100 µL/min
test.settings: column: Zorbax Extend-C18 2.1 x 50 mm; eluents: water / acetonitrile, 0.1% formic acid
reported.endpoint: RP-LC retention time (s)

Use these answered entries as a reference point.
O=C(Nc1nc(-c2ccc([N+](=O)[O-])cc2)cs1)c1ccc2ncsc2c1    892
CS(=O)(=O)Nc1ccc(C2(C(=O)NCc3cccs3)CCCCC2)cc1    851

I. CN(CC1CCOC1)C(=O)Nc1cc(F)ccc1F (stereo not drawn)
II. CC1=NS(=O)(=O)N(C)C=C1C(=O)OCc1nc(-c2cccc(Cl)c2)no1
Quick check, higher RP-LC retention time between I and II ? # respond with the chosen item's label II
(II: 1010 s, I: 704 s)

A. CCOC(=O)Cc1nc(-c2cncc(Br)c2)n[nH]1
B. Cc1c(-c2noc(-c3ccc(F)cc3)n2)nnn1Cc1ccccc1
Field: lower recorded RP-LC retention time (choose A or B ) # respond with the chosen item's label A

###

assay.text: gradient 5% acetonitrile 3 min, to 50% in 2 min, to 85% in 15 min, held 3 min, 100 µL/min
test.settings: column: Zorbax Extend-C18 2.1 x 50 mm; eluents: water / acetonitrile, 0.1% formic acid
reported.endpoint: RP-LC retention time (s)

CCOc1ccc(-c2noc(N3CCC(C(=O)N4CCOCC4)CC3)n2)cc1OC    736

I. Cc1cccc(NC(=O)Cc2cn3cc(F)ccc3n2)c1C
II. CCCNC(=O)c1ccc(CN2CC(=O)N3CCCCC3C2=O)cc1 (stereo not given)
Quick check, higher RP-LC retention time between I and II ? # respond with the chosen item's label II

P. O=C(Cn1cccc1-c1nc(-c2ccc3c(c2)OCO3)no1)Nc1cc(F)ccc1Cl
Q. Cc1nn(-c2ccc(C(=O)NC(C)C)cc2)c2c1C(=O)CC(C)(C)C2
Field: lower recorded RP-LC retention time (choose P or Q ) # respond with the chosen item's label Q

###

assay.text: gradient 5% acetonitrile 3 min, to 50% in 2 min, to 85% in 15 min, held 3 min, 100 µL/min
test.settings: column: Zorbax Extend-C18 2.1 x 50 mm; eluents: water / acetonitrile, 0.1% formic acid
reported.endpoint: RP-LC retention time (s)

P. COc1cccc(CNC(=O)C2CCN(S(=O)(=O)c3cn(C)cn3)CC2)c1
Q. CCc1cccc(C)c1NC(=O)C1CCCN(S(=O)(=O)c2ccc(OC)c(Cl)c2)C1 (stereo not given)
Quick check, higher RP-LC retention time between P and Q ? # respond with the chosen item's label Q

I. O=C(NCc1ccc2c(c1)OCO2)C1CCCN(c2nnc3ccccn23)C1 (stereo not given)
II. CCc1cc(-c2csc(S(=O)(=O)N3CC=C(c4ccccc4)CC3)c2)on1
Field: lower recorded RP-LC retention time (choose I or II ) # respond with the chosen item's label I
(I: 573 s, II: 1170 s)
